Data credit: ChEMBL document CHEMBL1130361

Readout name: log10 of IC50 (log10 of the value in nM)
Form field - Quantity: IC50; Unit: nM; Scale: log10

Enquiry: For Glutamate receptor ionotropic AMPA (Homo sapiens, UniProt P42261+P42262+P42263+P48058), provide log10 of IC50 of C[C@@]12CC[C@H](CS(=O)(=O)c3nc[nH]n3)C[C@]1(C)CC(C(=O)O)NC2 (some centres not stated) please.
Return: 2.80

Enquiry: For Glutamate receptor ionotropic AMPA (Homo sapiens, UniProt P42261+P42262+P42263+P48058), provide log10 of IC50 of "CN1CCc2c(-c3ccc([N+](=O)[O-])cc3)cc3c(c2C1)NC(=O)/C3=N\O" please.
Return: 2.18

Enquiry: For Glutamate receptor ionotropic AMPA (Homo sapiens, UniProt P42261+P42262+P42263+P48058), provide log10 of IC50 of "O=[N+]([O-])c1ccc2nc(O)c(O)nc2c1" please.
Return: 3.30

Enquiry: For Glutamate receptor ionotropic AMPA (Homo sapiens, UniProt P42261+P42262+P42263+P48058), provide log10 of IC50 of "CN1Cc2c(S(=O)(=O)N(C)C)cc3c(N=O)c(O)[nH]c3c2C1" please.
Return: 2.85

Enquiry: For Glutamate receptor ionotropic AMPA (Homo sapiens, UniProt P42261+P42262+P42263+P48058), provide log10 of IC50 of "CCN1CCc2c([N+](=O)[O-])cc3[nH]c(=O)c(=O)[nH]c3c2C1" please.
Return: 2.22

Enquiry: For Glutamate receptor ionotropic AMPA (Homo sapiens, UniProt P42261+P42262+P42263+P48058), provide log10 of IC50 of "Oc1nc2ccc3c(c2nc1O)CCCN3" please.
Return: 4.38

Enquiry: For Glutamate receptor ionotropic AMPA (Homo sapiens, UniProt P42261+P42262+P42263+P48058), provide log10 of IC50 of "CC(C)N1CCc2c([N+](=O)[O-])cc3[nH]c(=O)c(=O)[nH]c3c2C1" please.
Return: 2.18

Enquiry: For Glutamate receptor ionotropic AMPA (Homo sapiens, UniProt P42261+P42262+P42263+P48058), provide log10 of IC50 of C[C@@]12CC[C@H](CCc3nnn[nH]3)C[C@]1(C)CC(C(=O)O)NC2 (some centres not stated) please.
Return: 3.13

Enquiry: For Glutamate receptor ionotropic AMPA (Homo sapiens, UniProt P42261+P42262+P42263+P48058), provide log10 of IC50 of C[C@@]12CC[C@H](CSc3nn[nH]n3)C[C@]1(C)CC(C(=O)O)NC2 (some centres not stated) please.
Return: 2.76

Enquiry: For Glutamate receptor ionotropic AMPA (Homo sapiens, UniProt P42261+P42262+P42263+P48058), provide log10 of IC50 of "O=C1Nc2c(ccc3c2CCCC3)/C1=N/O" please.
Return: 3.86

Enquiry: For Glutamate receptor ionotropic AMPA (Homo sapiens, UniProt P42261+P42262+P42263+P48058), provide log10 of IC50 of "CN1CCc2c([N+](=O)[O-])cc3[nH]c(=O)c(=O)[nH]c3c2C1" please.
Return: 1.90

Enquiry: For Glutamate receptor ionotropic AMPA (Homo sapiens, UniProt P42261+P42262+P42263+P48058), provide log10 of IC50 of "COC(=O)c1cc2nc(O)c(O)nc2c2c1CN(C)CC2" please.
Return: 4.64
